- assay.remarks: amyloid nucleation score (Sup35N fusion, yeast selection) (log enrichment); library NNK1; higher = more nucleation; inactive = no reads after selection;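 further: zero at mode of non-aggregating sequences after 7 days selection at 30°C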
Please respond with reported amyloid nucleation score for every item in the list.
Respond using a number only.

Reported amyloid nucleation score, substance SSEDAVRLLLIVIFFLTFKF : ____ 0.778

Reported amyloid nucleation score, substance LRKSWVQSKHCDIRPDSKAL : ____ 0.693

Reported amyloid nucleation score, substance RMYLGVLIRHWIDSFAFGMQ : ____ 0.193

Reported amyloid nucleation score, substance SVRFSIETISWRGAYNRGTR : ____ 1.98

Reported amyloid nucleation score, substance YYVKISLGGSLNNLWKRDWW : ____ 3.54

Reported amyloid nucleation score, substance ETHGYFVYVFVCGRWAGMK : ____ -0.114

Reported amyloid nucleation score, substance NRRVSLCRASCSIMRVKPLG : ____ -0.261

Reported amyloid nucleation score, substance GQKYHINVRERLNNLFGDCV : ____ 0.537

Reported amyloid nucleation score, substance GSGSYRGTRLECLCFW : ____ 0.025

Reported amyloid nucleation score, substance GRRTAI : ____ -0.069

Reported amyloid nucleation score, substance SDFAYCRCNLSVYRGMILTQ : ____ 0.064

Reported amyloid nucleation score, substance QAVGSI : ____ 0.031

Reported amyloid nucleation score, substance SEPEKG : ____ -0.463

Reported amyloid nucleation score, substance RGGKGPRFVYNRFISRAAGR : ____ -0.869

Reported amyloid nucleation score, substance TGLWPMEYSCQCDVVYPVSY : ____ -0.051
